Test system: Nuclear receptor ROR-gamma (Homo sapiens, UniProt P51449)
Sequence (P51449 whole entry, the tested form may be a part): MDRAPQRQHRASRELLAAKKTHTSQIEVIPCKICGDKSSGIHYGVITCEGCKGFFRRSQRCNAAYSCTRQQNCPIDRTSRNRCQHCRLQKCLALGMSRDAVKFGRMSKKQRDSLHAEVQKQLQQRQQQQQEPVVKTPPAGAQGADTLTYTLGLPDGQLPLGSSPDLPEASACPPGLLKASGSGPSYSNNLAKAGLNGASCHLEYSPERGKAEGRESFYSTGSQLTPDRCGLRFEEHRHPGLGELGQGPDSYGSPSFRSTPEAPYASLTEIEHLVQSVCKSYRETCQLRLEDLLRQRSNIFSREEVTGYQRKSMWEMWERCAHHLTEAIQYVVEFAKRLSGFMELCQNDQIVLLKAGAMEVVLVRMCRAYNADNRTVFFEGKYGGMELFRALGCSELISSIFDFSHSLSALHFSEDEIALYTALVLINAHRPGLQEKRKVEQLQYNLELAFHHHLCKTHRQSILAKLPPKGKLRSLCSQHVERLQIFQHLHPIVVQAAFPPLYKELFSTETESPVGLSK
Method description: Antagonist activity at transactivation domain of RORgammat (unknown origin) expressed in Drosophila Schneider cells co-expressing Gal4-DNA binding domain
Assay type: cell-based, Schneider 2
Reported conditions: read-out: IC50
Readout: IC50 (µM)
Report as a plain number; the unit µM is understood.

>>> quantitative_result("C[C@H]1O[C@@H](O[C@H]2[C@@H](O)C[C@H](O[C@H]3[C@@H](O)C[C@H](O[C@H]4CC[C@@]5(C)[C@H](CC[C@@H]6[C@@H]5C[C@@H](O)[C@]5(C)[C@@H](C7=CC(=O)OC7)CC[C@]65O)C4)O[C@@H]3C)O[C@@H]2C)C[C@H](O)[C@@H]1O")
2
>>> quantitative_result("COc1cc(O)c(C(CC(=O)N2CCCC(C)C2)c2ccc3c(c2)OCO3)c(OC)c1 (mixture of isomers)")
3.3
>>> quantitative_result("COc1cc(O)c(C(CC(=O)N2CCCCC2)c2ccc3c(c2)OCO3)c(OC)c1 (configuration not stated)")
15.7

We now examine a further compound.
Could you tell me which IC50 is on file for COc1ccc(C(CC(=O)N2CCCC(C)C2)c2c(O)cc(OC)cc2OC)cc1 (mixture of isomers) ? 2.5
